For each entry below, report its GI50 value.
# System: SR
# Procedure text: NCI tumour cell line growth inhibition, 48 h
Calls of active or inactive are those of the source. Rule as the data show it: active = GI50 up to about 1.1 µM and inactive = higher.

Request the reported GI50 associated with "O=C(c1ccccc1)c1ccc(N2C(=O)/C(=C/Cc3ccco3)N=C2c2ccccc2)c(N2C(=O)/C(=C/Cc3ccco3)N=C2c2ccccc2)c1"
28.6 µM (inactive)

Request the reported GI50 associated with "C=C(C)CNCC(=C)C.Oc1c(Cl)c(Cl)c(Cl)c(Cl)c1Cl"
26.6 µM (inactive)

Request the reported GI50 associated with "C=C[C@@]1(C)CC(=O)[C@]2(O)[C@@]3(C)[C@@H](OC(C)=O)CCC(C)(C)[C@@H]3[C@H](O)[C@H](OC(C)=O)[C@@]2(C)O1"
> 100 µM (inactive)

Request the reported GI50 associated with "Fc1ccc(OCc2ccc3nc(-c4ccccc4)c(Cl)nc3c2)cc1"
16.1 µM (inactive)
